// data source = patent US8785452B2

Test system: Raw264.7 cells
testProtocol: Cell number (CellNb) from image analysis of the phenotypic cell-based assay
testParameters: primary screen, 20 μM
measurementName: Primary QIM CellNb

[[record]]
compoundstructurestring = "O=C(Nc1cc(Cl)cc(Cl)c1)c1cc([N+](=O)[O-])ccc1Cl"
experimentaltarget = "Raw264.7 cells"
measurementname = "Primary QIM CellNb"
result = 155.5

[[record]]
compoundstructurestring = "O=C(Nc1sc2c(c1C(=O)Nc1ccccc1)CCC2)c1cccs1"
experimentaltarget = "Raw264.7 cells"
measurementname = "Primary QIM CellNb"
result = 193.8

[[record]]
compoundstructurestring = "Cc1ccccc1/C=N/NC(=O)c1ccncc1"
experimentaltarget = "Raw264.7 cells"
measurementname = "Primary QIM CellNb"
result = 415.5

[[record]]
compoundstructurestring = "O=C(NCc1ccc2c(c1)OCO2)c1cc([N+](=O)[O-])cc([N+](=O)[O-])c1"
experimentaltarget = "Raw264.7 cells"
measurementname = "Primary QIM CellNb"
result = 315.0

[[record]]
compoundstructurestring = "Cn1cc(/C=N/NC(=O)c2cccc(F)c2)c2ccccc21"
experimentaltarget = "Raw264.7 cells"
measurementname = "Primary QIM CellNb"
result = 203.8

